Source listed as patent US20150175603A1.

Biological target: human KAT II (hKAT II) enzyme (Homo sapiens, UniProt Q8N5Z0)
Sequence (Q8N5Z0 30-425): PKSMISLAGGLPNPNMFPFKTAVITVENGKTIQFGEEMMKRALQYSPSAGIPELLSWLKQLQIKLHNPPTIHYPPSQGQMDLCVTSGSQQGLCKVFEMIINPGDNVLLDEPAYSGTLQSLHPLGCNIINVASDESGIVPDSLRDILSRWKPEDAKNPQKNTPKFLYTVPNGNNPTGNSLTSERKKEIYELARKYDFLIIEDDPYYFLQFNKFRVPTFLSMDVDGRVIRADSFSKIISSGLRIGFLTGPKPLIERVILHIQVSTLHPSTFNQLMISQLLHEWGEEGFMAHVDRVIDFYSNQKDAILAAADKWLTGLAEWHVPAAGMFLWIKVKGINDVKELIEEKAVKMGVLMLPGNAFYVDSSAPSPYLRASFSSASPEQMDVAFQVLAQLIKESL
Assay: KAT II Inhibition Spectra Assay
Format: biochemical
Conditions: single determination unless marked a (geometric mean of 2-4 determinations); decrease in OD370, L-kynurenine substrate, 37° C. for 15-20 h; read-out: KATII IC50
Protocol: KAT II Inhibition Spectra Assay Formation of kynurenic acid (KYNA) is indirectly assessed by a decrease in light absorbance at 370 nm (OD370) as the L-kynurenine (KYN) substrate is converted by the human KAT II (hKAT II) enzyme into KYNA. An inhibitor would therefore inhibit the decrease in OD370. […] Plates were sealed and incubated at 37° C. for 15-20 h before reading OD370 on a SpectraMax Plus plate reader. […]
Structures can show the parent of a compound that is named as a salt.
MEASUREMENT_NAME: pIC50
Friendly reminder that pIC50 comes from taking -log10 of the concentration in mol/L.

Item under review: NC1Cc2cc(-c3ccc(F)cc3)ccc2-n2c1n[nH]c2=O (stereo not shown) [Example 24, trifluoroacetate salt] . Reported pIC50?
5.97

Also check NC1Cc2cc(-c3ccccc3Cl)ccc2-n2c1n[nH]c2=O (stereo not shown) [Example 11, trifluoroacetate salt]
6.30

* * *

target: human KAT II (hKAT II) enzyme (Homo sapiens); experiment: KAT II Inhibition Spectra Assay; type: biochemical; conditions: single determination unless marked a (geometric mean of 2-4 determinations); decrease in OD370, L-kynurenine substrate, 37° C. for 15-20 h; read-out: KATII IC50
pIC50: −log10 of the molar value. Structures can show the parent of a compound that is named as a salt.
Binary call on pIC50: rule met from 6 upward, rule not met beneath that.

Please review the following examples before continuing.
{"MOLECULE": "COc1cccc(Oc2ccc3c(c2)CC(N)c2n[nH]c(=O)n2-3)c1 (single isomer, unassigned; ent-2) [Example C9, hydrochloride salt]", "ASSIGNED_CATEGORY": "rule not met"}
{"MOLECULE": "Cn1nccc1-c1ccc2c(c1)CC(N)c1n[nH]c(=O)n1-2 (stereo not drawn) [Example 36, trifluoroacetate salt]", "ASSIGNED_CATEGORY": "rule met"}
{"MOLECULE": "NC1Cc2cc(Cc3ccccc3)ccc2-n2c1n[nH]c2=O (stereo not drawn) [Example 44, hydrochloride salt]", "ASSIGNED_CATEGORY": "rule met"}
{"MOLECULE": "NC1Cc2cc(Oc3ccccc3)ncc2-n2cnnc21 (stereo not drawn) [Example 7, hydrochloride salt]", "ASSIGNED_CATEGORY": "rule met"}
{"MOLECULE": "NC1Cc2cc(-c3cccc(C(F)(F)F)c3)ccc2-n2c1n[nH]c2=O (stereo not drawn) [Example 27, trifluoroacetate salt]", "ASSIGNED_CATEGORY": "rule met"}

Does pIC50 meet or surpass 6 for NC1Cc2cc(Oc3ccccc3)cnc2-n2c1n[nH]c2=O (single isomer, unassigned; ent-1) ?
rule met

Also check CC(=O)c1cccc(-c2ccc3c(c2)CC(N)c2n[nH]c(=O)n2-3)c1 (stereo not drawn) [Example 25, trifluoroacetate salt]
rule met

Also check CCOc1cc(-c2ccc3c(c2)CC(N)c2n[nH]c(=O)n2-3)ccn1 (stereo not drawn) [Example 17, trifluoroacetate salt]
rule not met

Also check Cn1ncc2c(-c3ccc4c(c3)CC(N)c3n[nH]c(=O)n3-4)cccc21 (stereo not drawn) [Example 15, trifluoroacetate salt]
rule met

* * *

Recorded pIC50 for the following compounds
target: human KAT II (hKAT II) enzyme (Homo sapiens); experiment: KAT II Inhibition Spectra Assay; type: biochemical; conditions: single determination unless marked a (geometric mean of 2-4 determinations); decrease in OD370, L-kynurenine substrate, 37° C. for 15-20 h; read-out: KATII IC50
Structures can show the parent of a compound that is named as a salt.
Friendly reminder that pIC50 comes from taking -log10 of the concentration in mol/L.

Sample records with pIC50:
{"COMPOUND": "NC1Cc2cc(-c3cccc(Cl)c3)ccc2-n2c1n[nH]c2=O (stereo not shown) [Example 14, trifluoroacetate salt]", "pIC50": 6.81}
{"COMPOUND": "NC1Cc2cc(-c3cccc4cnccc34)ccc2-n2c1n[nH]c2=O (stereo not shown) [Example 12, trifluoroacetate salt]", "pIC50": 6.48}
{"COMPOUND": "COc1ccccc1-c1ccc2c(c1)CC(N)c1n[nH]c(=O)n1-2 (stereo not shown) [Example 19, trifluoroacetate salt]", "pIC50": 6.12}

Now, please, on to the next compound.
Item under review: COc1cccc(-c2ccc3c(c2)CC(N)c2n[nH]c(=O)n2-3)c1 (stereo not shown) [Example 28, trifluoroacetate salt] . Reported pIC50?
6.45

* * *

target: human KAT II (hKAT II) enzyme (Homo sapiens); assay: KAT II Inhibition Spectra Assay; assay type: biochemical; conditions: single determination unless marked a (geometric mean of 2-4 determinations); decrease in OD370, L-kynurenine substrate, 37° C. for 15-20 h; read-out: KATII IC50
Counter-ions that a name gives are not always drawn.
MEASUREMENT_NAME: IC50 (nM)
Write the answer as a number in nM, unit excluded.

{"COMPOUND": "NC1Cc2cc(-c3ccccc3C(F)(F)F)ccc2-n2c1n[nH]c2=O (stereo not shown) [Example 40, trifluoroacetate salt]", "MEASUREMENT_NAME": "IC50", "MEAS_VALUE": 320}
{"COMPOUND": "Cc1ccccc1-c1ccc2c(c1)CC(N)c1n[nH]c(=O)n1-2 (stereo not shown) [Example 31, trifluoroacetate salt]", "MEASUREMENT_NAME": "IC50", "MEAS_VALUE": 660}
{"COMPOUND": "COc1cc2c(cc1Cc1ccccc1)CC(N)c1nncn1-2 (stereo not shown) [Example 46, hydrochloride salt]", "MEASUREMENT_NAME": "IC50", "MEAS_VALUE": 1130}

Any idea what IC50 came out for COc1cc2c(cc1Cc1ccccc1)CC(N)c1n[nH]c(=O)n1-2 (stereo not shown) [Example 47, hydrochloride salt] on human KAT II (hKAT II) enzyme (Homo sapiens)?
637

* * *

biological target: human KAT II (hKAT II) enzyme (Homo sapiens); experiment: KAT II Inhibition Spectra Assay; format: biochemical; settings: single determination unless marked a (geometric mean of 2-4 determinations); decrease in OD370, L-kynurenine substrate, 37° C. for 15-20 h; read-out: KATII IC50
Counter-ions that a name gives are not always drawn.
MEASUREMENT_NAME: IC50 (nM)
Write the answer as a number in nM, unit excluded.

Sample records with IC50:
{"COMPOUND": "NC1Cc2cc(Oc3ccccc3)cnc2-n2cnnc21 (single isomer, unassigned) [Example 9]", "MEASUREMENT_UNITS": "nM", "MEAS_VALUE": 1310}
{"COMPOUND": "Cc1cc(-c2ccc3c(c2)CC(N)c2n[nH]c(=O)n2-3)cnc1F (stereo not drawn) [Example 43, trifluoroacetate salt]", "MEASUREMENT_UNITS": "nM", "MEAS_VALUE": 263}

Now, please, on to the next compound.
Item under review: COc1cccc(Oc2ccc3c(c2)CC(N)c2nncn2-3)c1 (single isomer, unassigned; ent-2) [Example 5] . Reported IC50?
1240

* * *

Recorded pIC50 for the following molecules
molecular target: human KAT II (hKAT II) enzyme (Homo sapiens, UniProt Q8N5Z0); assay: KAT II Inhibition Spectra Assay; assay type: biochemical; conditions: single determination unless marked a (geometric mean of 2-4 determinations); decrease in OD370, L-kynurenine substrate, 37° C. for 15-20 h; read-out: KATII IC50
Counter-ions that a name gives are not always drawn.
Friendly reminder that pIC50 comes from taking -log10 of the concentration in mol/L.

{"MOLECULE": "NC1Cc2cc(-c3ccc(F)nc3)ccc2-n2c1n[nH]c2=O (stereo not drawn) [Example 42, trifluoroacetate salt]", "pIC50": 6.07}

Item under review: COc1ccc(F)cc1-c1ccc2c(c1)CC(N)c1n[nH]c(=O)n1-2 (stereo not drawn) [Example 32, trifluoroacetate salt] . Reported pIC50?
6.52

Also check NC1Cc2cc(Oc3ccccc3)cnc2-n2cnnc21 (single isomer, unassigned) [Example 8]
6.54

Also check NC1Cc2cc(-c3cccc(OC(F)(F)F)c3)ccc2-n2c1n[nH]c2=O (stereo not drawn) [Example 23, trifluoroacetate salt]
6.16

Also check NC1Cc2cc(-c3cccnc3)ccc2-n2c1n[nH]c2=O (stereo not drawn) [Example 20, trifluoroacetate salt]
6.26

Also check Cc1ccc(C)c(-c2ccc3c(c2)CC(N)c2n[nH]c(=O)n2-3)c1 (stereo not drawn) [Example 38, trifluoroacetate salt]
6.23

Also check COc1cccc(Oc2ccc3c(c2)CC(N)c2nncn2-3)c1 (single isomer, unassigned; ent-1) [Example 4]
6.97

Also check NC1Cc2cc(-c3cc(C(F)(F)F)ccc3Cl)ccc2-n2c1n[nH]c2=O (stereo not drawn) [Example 21, trifluoroacetate salt]
5.90

Also check NC1Cc2cc(Oc3ccccc3)ccc2-n2c1n[nH]c2=O (stereo not drawn) [Example 48, hydrochloride salt]
7.08

Also check NC1Cc2cc(-c3ccccc3)ccc2-n2c1n[nH]c2=O (stereo not drawn) [Example 45, hydrochloride salt]
6.10

Also check NC1Cc2cc(-c3ccc(Cl)cc3Cl)ccc2-n2c1n[nH]c2=O (stereo not drawn) [Example 35, trifluoroacetate salt]
5.86

Also check COc1ncccc1-c1ccc2c(c1)CC(N)c1n[nH]c(=O)n1-2 (stereo not drawn) [Example 33, trifluoroacetate salt]
6.71

Also check COc1ccc(-c2ccc3c(c2)CC(N)c2n[nH]c(=O)n2-3)cn1 (stereo not drawn) [Example 22, trifluoroacetate salt]
5.72

Also check CC(C)Oc1cccc(-c2ccc3c(c2)CC(N)c2n[nH]c(=O)n2-3)c1 (stereo not drawn) [Example 30, trifluoroacetate salt]
6.27

Also check NC1Cc2cc(-c3cccc(F)c3F)ccc2-n2c1n[nH]c2=O (stereo not drawn) [Example 26, trifluoroacetate salt]
6.44
